These data points were gathered from patent US20240368181A1.

test system: DMS-114 (FGFR1 overexpression) cells; experiment: cell proliferation assay (CellTiterGlo), DMS-114 cells; type: cell-based; conditions: Homo sapiens, DMS-114, 72 h
endpoint name: IC50

[
  {
    "compound": "Cc1nc2ccc(Oc3ccc4ncc(-c5cnn(CC(=O)NCCO)c5)nc4c3Cl)cc2[nH]1",
    "experimental value": "≥ 400 nM"
  },
  {
    "compound": "Cc1nc2ccc(Oc3ccc4ncc(-c5cnn(CC(N)=O)c5)nc4c3Cl)cc2[nH]1",
    "experimental value": "≥ 400 nM"
  },
  {
    "compound": "Cc1nc2ccc(Oc3ccc4ncc(-c5cnn(C6CCC(F)(F)CC6)c5)nc4c3Cl)cc2o1",
    "experimental value": "≥ 400 nM"
  },
  {
    "compound": "Cc1nc2ccc(Oc3ccc4ncc(-c5cnn(C6C7CCC6CNC7)c5)nc4c3Cl)cc2[nH]1 (stereo not drawn)",
    "experimental value": "100 to 400 nM"
  },
  {
    "compound": "Cc1nc2ccc(Oc3ccc4ncc(-c5cnn(CC6CN(CC(=O)N7CC(O)C7)C6)c5)nc4c3Cl)cc2[nH]1",
    "experimental value": "100 to 400 nM"
  },
  {
    "compound": "Cc1nc2ccc(Oc3ccc4ncc(-c5cnn(CC6CCS(=O)(=O)CC6)c5)nc4c3Br)cc2[nH]1",
    "experimental value": "≥ 400 nM"
  },
  {
    "compound": "Cc1nc2ccc(Oc3ccc4ncc(-c5cnn(CC6CN(CC(=O)N7CCC7)C6)c5)nc4c3Cl)cc2[nH]1",
    "experimental value": "≥ 400 nM"
  },
  {
    "compound": "Cc1nc2ccc(Oc3ccc4ncc(-c5cnn(CC6(C)CCOC6)c5)nc4c3Cl)cc2[nH]1 (stereo not drawn)",
    "experimental value": "≥ 400 nM"
  },
  {
    "compound": "Cc1nc2ccc(Oc3ccc4ncc(-c5cnn(C(C)C6CC(F)(F)C6)c5)nc4c3Cl)cc2[nH]1 (stereo not drawn)",
    "experimental value": "≥ 400 nM"
  },
  {
    "compound": "Cc1nc2ccc(Oc3ccc4ncc(-c5cnn(C(OCc6ccccc6)C6CC6)c5)nc4c3Cl)cc2[nH]1 (stereo not drawn)",
    "experimental value": "≥ 400 nM"
  },
  {
    "compound": "COC1CCN(CCn2cc(-c3cnc4ccc(Oc5ccc6nc(C)[nH]c6c5)c(Cl)c4n3)cn2)C1 (stereo not drawn)",
    "experimental value": "100 to 400 nM"
  },
  {
    "compound": "Cc1nc2ccc(Oc3ccc4ncc(-c5cnn([C@H]6CCNC[C@@H]6F)c5)nc4c3Cl)cc2[nH]1",
    "experimental value": "≥ 400 nM"
  },
  {
    "compound": "Cc1nc2ccc(Oc3ccc4ncc(-c5cnn(C6CC(O)C6)c5)nc4c3Cl)cc2[nH]1 (stereo not drawn)",
    "experimental value": "≥ 400 nM"
  },
  {
    "compound": "Cc1nc2ccc(Oc3ccc4ncc(-c5cnn(CC6(O)CC6)c5)nc4c3C3CCOC3)c(F)c2[nH]1 (stereo not drawn)",
    "experimental value": "20 to 100 nM"
  },
  {
    "compound": "Cc1nc2ccc(Oc3ccc4ncc(-c5cnn(C[C@@H]6CCS(=O)(=O)C6)c5)nc4c3Cl)cc2[nH]1",
    "experimental value": "100 to 400 nM"
  }
]
